Just for reference, paper PMC9917406 is where these values come from.

- Target entity: BpsCAγ (Burkholderia pseudomallei)
- Sequence (Q63SQ4 1-174): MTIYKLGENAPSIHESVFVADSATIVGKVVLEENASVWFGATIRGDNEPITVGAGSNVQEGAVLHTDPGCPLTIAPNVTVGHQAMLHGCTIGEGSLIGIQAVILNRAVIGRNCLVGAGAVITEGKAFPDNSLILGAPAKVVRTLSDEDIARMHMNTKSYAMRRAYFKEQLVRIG
- Measurement context: read-out: KI BpsCAγ
pKi: −log10 of the molar value.
Quick reference for pKi among some compounds
Experimental endpoint: pKi

>>> reading("COc1cc(OC)c2c(c1Cl)O[C@]1(C2=O)C(=O)C(C(CC(=O)NCCc2ccc(S(N)(=O)=O)cc2)c2ccc(SC)cc2)C(=O)C[C@H]1C (stereo partly drawn)")
5.98
>>> reading("COc1cc(OC)c2c(c1Cl)O[C@@]1(C(=O)C(=CNCCc3ccc(S(N)(=O)=O)cc3)C(=O)C[C@H]1C)C2=O")
5.64
>>> reading("COc1cc(OC)c2c(c1Cl)O[C@]1(C2=O)C(=O)C(C(CC(=O)NCC(=O)Nc2ccc(S(N)(=O)=O)cc2)c2ccc(SC)cc2)C(=O)C[C@H]1C (stereo partly drawn)")
6.15
